Sourced from patent US20100129800A1

- Experimental details: Fluorescence properties of the new compounds (excitation and emission wavelengths)
- Assay type: physicochemical
- Condition description: free compound
Assign class by Fluorescence Excitation (nm): not lower than 300 nm means True; lower than 300 nm means False.

Check if Fluorescence Excitation (nm) >= 300 nm (inclusive). Item: CC(O)C(COP(=O)(O)OC(C)C(CO)NC(=O)c1c2ccccc2nc2ccccc12)NC(=O)c1c2ccccc2nc2c1[nH]c1ccccc12 (stereo not shown)
True

Kindly determine if Fluorescence Excitation (nm) recorded for CC(=O)NCCN(CC(=O)NCCN(CC(=O)NCCCCCCO)C(=O)CNC(=O)c1c2ccccc2nc2ccccc12)C(=O)CNC(=O)c1c2ccccc2nc2ccccc12 is above or exactly 300 nm.
False

---
Reported Fluorescence Excitation (nm) at or above 300 nm? CC(=O)NC1CC(C(N)=O)N(C(=O)CNC(=O)c2c3ccccc3nc3c2[nH]c2ccccc23)C1 (stereo not shown)
True

Hello, I need to know if CC(O)C(COP(=O)(O)OC(C)C(CO)NC(=O)c1cc(-c2ccccc2)nc2ccccc12)NC(=O)c1c2ccccc2nc2ccccc12 (stereo not shown) has measured Fluorescence Excitation (nm) not below 300 nm. Thanks!
False
